Test system: passive cutaneous anaphylaxis (PCA) reaction
Test: passive cutaneous anaphylaxis (PCA) test, i.v. or oral administration
Type: in vivo, male Charles River Wistar rats
Conditions: Rattus norvegicus, iv; I.V., 0.1 mg/kg; read-out: degree (%) of protection, PCA test
Procedure: In the PCA test, normal animals are injected intradermally (i.d.) with antibodies contained in serum obtained from actively sensitized animals. The animals are then challenged intravenously with antigen mixed with a dye such as Evans' Blue. […] The test animals are then asphyxiated and the intensity of the reaction determined by measuring the diameter and intensity of the blue coloration on the inner surface of the animals skin. […]
Could you label it 1 (yes) if measured inhibition in vivo at 0.1 mg/kg is 9% or higher, and 0 (no) otherwise?

Answered cases to consult:
CCOC(=O)c1nc2nc3cc(F)ccc3cc2c(=O)[nH]1	0 (no)
CCOC(=O)c1nc2nc3cc4c(cc3cc2c(=O)[nH]1)OCO4	0 (no)
CCOC(=O)c1nc2nc3cc(OC)c(OC)cc3cc2c(=O)[nH]1	1 (yes)
COc1cc2cc3c(=O)[nH]c(C(C)=O)nc3nc2cc1OC	1 (yes)
COc1cc2cc3c(=O)[nH]c(C(=O)O)nc3nc2cc1OC	1 (yes)

Hello, I need to know if CCOC(=O)c1nc2nc3cc(OCc4ccccc4)c(OCC)cc3cc2c(=O)[nH]1 has measured inhibition in vivo at 0.1 mg/kg not below 9%. Thanks!
0 (no)

# check: inhibition in vivo at 0.1 mg/kg of CCOC(=O)c1nc2nc3cc(OC)c(OCC)cc3cc2c(=O)[nH]1 is greater than or equal to 9%
1 (yes)
